- Test system: MS2 coat protein
- assay.info: apparent KD of MS2 coat protein; designed switch direction (-1 OFF switch, 1 ON switch): -1; higher = weaker reporter binding
- condition.set: Eterna round: R95; input ligand: microRNA oligo, concentration not stated
quantity.measured: apparent KD of MS2 coat protein (nM)
One number for each entry, in nM.

Worked cases, answers included:
>>> endpoint_result("AGUAACUAUCACGAAAGUGAUAGUUACACAAGCAGUGAAACAUGAGGAUCACCCAUGUCCUCAUUUGCUCGUCUUAU [Sensor 3 - 25] (puzzle: Sensor v3, turn-off variant 2)")
390
>>> endpoint_result("UUUAUGUCAGGAUAUGAGUAGUAGAACAAUAGUACUACUACUCAGAAGGGACAUGAGGAUCACCCAUGUUUCUC [Fiskers Ex 4 Super stable 44 mod 24] (puzzle: Exclusion 4)")
22.6
>>> endpoint_result("CUCCUACAUGAGGAUCACCCAUGUCAGGAUAUCUCAGUGGCACCUAAAGGCGCCACCCAGAGAAGGGACGUGCA [Soistiis] (puzzle: Exclusion 1)")
10.6
>>> endpoint_result("CGUAUGUGAGGAUAUGACAAUGGUAUCUUCGGAUACCAUUGUCAGAAGGAACAUGAGGAUCACCCAUGUAGAUC (puzzle: Exclusion 4)")
44.8
>>> endpoint_result("AGUUGGCGAGGAUAUACAUGAGGAUCACCCAUGUGAGAGAUACUAGUGAGGUCGAUUGGUAGAAGGCGCUGACG [Mat - Exclusion 3 - Mod of JL D79] (puzzle: Exclusion 3)")
104
>>> endpoint_result("AAGAAACAUGAGGAUCACCCAUGUGAGGAUAUGAAGAAGAAAAGAAAAGAAAGAAGAAUCAGAAGGCACAAAGG [salish99-ex1_r3_046] (puzzle: Exclusion 1)")
25.8

Batch: apparent KD of MS2 coat protein for all items listed.
1. GACCGGACGUGGUCAGGUAACAUGAGGAUCACCCAUGUAGGUCUAGGAACAAGCCUUUUGUAGGCUCGUCUUAUAAA [JR_SV3TOV1_Sub059] (puzzle: Sensor v3, turn-off variant 1)
2. AGGAAACAUGAGGAUCACCCAUGUGAGGAUAUGAAAAAGAAAAGAAAAGAAAGAAGAAUCAGAAGGCACAAAGG [Mat - Mod of Hog D1] (puzzle: Exclusion 1)
3. AAAAUACAUGAGGAUCACCCAUGUUAGGAUAUGCAAAGCCCAGUUAGCUUUUGGGUAGGUAGAAGGGACGGGUA [Reenen] (puzzle: Exclusion 1)
4. AAAAAGCGAGGAUAUACAUGAGGAUCACCCAUGUGAGGGCACCGCGGGCGCGGGACCGGUAGAAGGCGCAAAAA [Exc;s3-II] (puzzle: Exclusion 3)
5. AGUACUACCACGAAAGUGUUAGUACAAUAAGCUUGUGAAACAUGAGGAUCACCCAUGUCCUCAUAAGCUCGUCUUAU [salish99_TOv2_r3_021] (puzzle: Sensor v3, turn-off variant 2)
6. AGAAAGUCAGGAUAUACAUGAGGAUCACCCAUGUAAAGAAAAGAAAGGGAAGGAAGAGGUAGAAGGGACAAGAA [JR_Exclu3_Sub031] (puzzle: Exclusion 3)
7. CUAGAUCUUCGGAUCUAGUACAUGAGGAUCACCCAUGUGACGAGUUGAUCCUCAAACAAGCUUUUUGCUCGUCUUAU [Sensor v3 - Turn-off variant 1 - 17] (puzzle: Sensor v3, turn-off variant 1)
8. AGUAACAGAGGAUAUACUGUUUUAUGUGUUUGUUAUUUUAAACAUGAGGAUCACCCAUGUAGAAGGCUGAAUGA [JMF 99] (puzzle: Exclusion 2)

Ans:
[36.1, 32, 21.5, 24.1, 524, 22.7, 16, 24.7]
